test-system: Gamma-secretase
test-summary: Modulation of human gamma secretase overexpressed in CHO cells co-expressing wild type human APP assessed as inhibition of amyloid beta-42 production after 24 hrs by ELISA
Type: cell-based
pIC50: −log10 of the molar value.
observation-type: pIC50

Example entries and their recorded answers appear below.
Cc1cn(-c2ccc3n(c2=O)CCN(CCOc2ccc(F)cc2C2CC(F)(F)C2)C3=O)cn1 = 7.23
Cc1cn(-c2ccc3n(c2=O)CCN(CCOc2ccccc2C(C)(C)C)C3=O)cn1 = 6.89
Cc1cn(-c2ccc3n(c2=O)CCN(CCOc2ccccc2-c2csc(C)n2)C3=O)cn1 = 6.52
Cc1cn(-c2ccc3n(c2=O)CCN(CCOc2ccccc2-c2cc(C)ns2)C3=O)cn1 = 6.98

A = Cc1cn(-c2ccc3n(c2=O)CCN(CCOc2ccc(F)cc2[C@H](C)C(F)(F)F)C3=O)cn1
B = Cc1cn(-c2ccc3n(c2=O)CCN(CCOc2ccccc2-c2cc(C(F)(F)F)no2)C3=O)cn1
Field: lower pIC50 | Options: A / B Pick one; state its label.
A
(A: 7.07, B: 7.77)

1 = Cc1cn(-c2ccc3n(c2=O)CCN(CCOc2ccccc2-c2csc(C(F)(F)F)n2)C3=O)cn1
2 = Cc1cn(-c2ccc3n(c2=O)CCN(CCOc2ccccc2-c2cc(C(F)F)no2)C3=O)cn1
3 = Cc1cn(-c2ccc3n(c2=O)CCN([C@@H](C)COc2ccc(F)cc2[C@@H](C)C(F)(F)F)C3=O)cn1
4 = Cc1cn(-c2ccc3n(c2=O)CCN(CCOc2ccc(F)cc2C(C)(C)C(F)(F)F)C3=O)cn1
Exam item: list the entries in increasing order of pIC50. Give me the labels in the order the question wants.
2, 4, 1, 3

P = Cc1cn(-c2ccc3n(c2=O)CCN(CCOc2ccccc2C2CCC2)C3=O)cn1
Q = Cc1cn(-c2ccc3n(c2=O)CCN(CCOc2ccc(F)c4nc(C(F)(F)F)sc24)C3=O)cn1
Field: lower pIC50 | Options: P / Q Pick one; state its label.
P

* * *

Tested on: MDR1 (human)
test-summary: Efflux ratio of apparent permeability from basolateral to apical over apical to basolateral side in MDCK cells expressing human MDR1 at 2 uM after 5 hrs by transwell assay
Assay type: ADME, cell-based, Canis lupus familiaris
condition-parameters: dog
observation-type: efflux ratio at 5 h, 2 µM
Write the number on its own, no unit after it.

I am curious: what efflux ratio at 5 h, 2 µM value has been reported for Cc1cn(-c2ccc3n(c2=O)CCN(CCOc2ccccc2C(C)(C)C)C3=O)cn1 ?
1.7
